# PROCEDURE SUMMARY: chemical genetic growth profiling, strain panel (AID 1159580);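 note: tested at 20 µM; growth read once vehicle control cultures reached saturation at 30 °C; 1 = growth at the plate median or of vehicle wells; lower values mean less growth of the strain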
# EXPERIMENTAL PARAMETERS: S. cerevisiae deletion strains, growth OD, locus YGR078C, strain PAC10, active compounds read low
The campaign covered roughly 5,500 compounds. About 2,000 (36%) were called active. Not shown: some 18% with an inconclusive outcome. This is one part of the list.
# TRUE = normalized growth below 1 (exclusive); FALSE = normalized growth at/above 1

// known answers, use as guide
I'd appreciate it if you could check whether O=C(OC[C@H]1O[C@H](OC(=O)c2cc(O)c(O)c(OC(=O)c3cc(O)c(O)c(O)c3)c2)[C@H](OC(=O)c2cc(O)c(O)c(OC(=O)c3cc(O)c(O)c(O)c3)c2)[C@@H](OC(=O)c2cc(O)c(O)c(OC(=O)c3cc(O)c(O)c(O)c3)c2)[C@@H]1OC(=O)c1cc(O)c(O)c(OC(=O)c2cc(O)c(O)c(O)c2)c1)c1cc(O)c(O)c(OC(=O)c2cc(O)c(O)c(O)c2)c1 has normalized growth smaller than 1.
TRUE

I'd appreciate it if you could check whether O=c1c(O)c(-c2ccc(O)c(O)c2)oc2cc(O)ccc12 has normalized growth smaller than 1.
TRUE

More entries:
I'd appreciate it if you could check whether COc1cccc(O)c1O has normalized growth smaller than 1.
FALSE

I'd appreciate it if you could check whether O=c1cc(C(F)(F)F)[nH]c2c(Cl)cccc12 has normalized growth smaller than 1.
TRUE

====

Parameter: normalized growth. Scope: all listed entries.
# PROCEDURE SUMMARY: chemical genetic growth profiling, strain panel (AID 1159580)
# EXPERIMENTAL PARAMETERS: S. cerevisiae deletion strains, growth OD, locus YOL147C, strain pex11, active compounds read low
Among all 5,500 compounds or so, about 2,000 (36%) were called active. Another 18% or so got no clear call; they are omitted. Some of the results follow.
Number only, please.

Below, each entry is followed by its recorded normalized growth result.
Which value of normalized growth has been reported for COc1ccc(C2C(=O)c3ccccc3C2=O)cc1 in the records?
0.992

Which value of normalized growth has been reported for O=C(O)c1cc(=O)c2cccc(O)c2[nH]1 in the records?
0.985

More entries:
Which value of normalized growth has been reported for NC[C@H]1O[C@H](O[C@H]2C(O[C@@H]3O[C@H](CO)[C@@H](O)[C@H]3O)[C@@H](O)[C@H](N)C[C@@H]2N)[C@H](N)[C@@H](O)[C@@H]1O (stereo partly drawn) in the records?
0.989

Which value of normalized growth has been reported for NC(N)=NC(N)=Nc1ccccc1 in the records?
0.991

Which value of normalized growth has been reported for CO[C@@]1(NC(=O)Cc2cccs2)C(=O)N2C(C(=O)O)=C(COC(N)=O)CS[C@@H]21 in the records?
0.992

Which value of normalized growth has been reported for CCc1cccc2c3c([nH]c12)C(CC)(CC(=O)O)OCC3 (stereo not drawn) in the records?
1

Which value of normalized growth has been reported for Cc1cc(=O)n(-c2ccccc2)n1C in the records?
0.989

Which value of normalized growth has been reported for COc1cc(O)cc(OC)c1OC in the records?
1

Which value of normalized growth has been reported for COc1ccc(C(=O)O)c(O)c1OC in the records?
0.988

====

# PROCEDURE SUMMARY: chemical genetic growth profiling, strain panel (AID 1159580)
# EXPERIMENTAL PARAMETERS: S. cerevisiae deletion strains, growth OD, locus YOR070C, strain gyp1, active compounds read low
Screen size: about 5,500 compounds; about 2,000 (36%) were called active. Inconclusive results (about 18%) are left out. This is one part of the list.
READOUT NAME: normalized growth
Number only, please.

Below, each entry is followed by its recorded normalized growth result.
Which value of normalized growth has been reported for NC[C@H]1O[C@H](O[C@H]2[C@H](O)[C@@H](O[C@H]3O[C@H](CO)[C@@H](O)[C@H](N)[C@H]3O)[C@H](N)C[C@@H]2N)[C@H](N)C[C@@H]1O in the records?
1.02

Which value of normalized growth has been reported for C1CCC(C(CC2CCCCN2)C2CCCCC2)CC1 (stereo unspecified) in the records?
0.979

Which value of normalized growth has been reported for C=C(C)[C@@H]1CC[C@]2(CO)CC[C@]3(C)[C@H](CCC4[C@@]5(C)CC[C@H](O)C(C)(C)C5CC[C@]43C)C12 (stereo partly specified) in the records?
1.01

Which value of normalized growth has been reported for CNCC[C@@H](Oc1ccccc1)c1ccccc1 in the records?
0.989

Which value of normalized growth has been reported for CCOc1ccc(NC(C)=O)cc1 in the records?
1.02

Field: next compound
Which value of normalized growth has been reported for COc1ccc(C(=O)c2ccccc2)c(O)c1O in the records?
0.975

====

Parameter: normalized growth. Scope: all listed entries.
# PROCEDURE SUMMARY: chemical genetic growth profiling, strain panel (AID 1159580);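 note: tested at 20 µM; growth read once vehicle control cultures reached saturation at 30 °C; 1 = growth at the plate median or of vehicle wells; lower values mean less growth of the strain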
# EXPERIMENTAL PARAMETERS: S. cerevisiae deletion strains, growth OD, locus YBL061C, strain skt5, active compounds read low
Among all 5,500 compounds or so, about 2,000 (36%) were called active. Another 18% or so got no clear call; they are omitted. The list shows a part of the results.
Number only, please.

Which value of normalized growth has been reported for COC(=O)C[C@H]1C(C)(C)[C@@H](O)[C@@H]2CC3=C4C=C(OC)O[C@@H](c5ccoc5)[C@]4(C)CCC3[C@@]1(C)C2=O (stereo not given in full) in the records?
1.01

====

# PROCEDURE SUMMARY: chemical genetic growth profiling, strain panel (AID 1159580);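 note: tested at 20 µM; growth read once vehicle control cultures reached saturation at 30 °C; 1 = growth at the plate median or of vehicle wells; lower values mean less growth of the strain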
# EXPERIMENTAL PARAMETERS: S. cerevisiae deletion strains, growth OD, locus YCL029C, strain bik1, active compounds read low
In all, about 5,500 compounds went through this assay and about 2,000 (36%) were called active. Inconclusive results (about 18%) are left out. The list shows a part of the results.
Parameter: normalized growth. Scope: all listed entries.
Number only, please.

Below, each entry is followed by its recorded normalized growth result.
Which value of normalized growth has been reported for CC(=O)O[C@@H]1CC[C@]2(C)C3CC[C@]4(C)C(=O)CCC4C3CC[C@H]2C1 (some centres undefined) in the records?
0.987

Which value of normalized growth has been reported for C[C@]12CCC(=O)C=C1CCC1C2[C@@H](O)C[C@@]2(C)C1CC[C@]2(O)C(=O)COC(=O)CCC(=O)O (some centres undefined) in the records?
0.999

Which value of normalized growth has been reported for O=C(CCc1ccc(O)cc1)c1c(O)cc(O)cc1O[C@@H]1O[C@H](CO)[C@@H](O)[C@H](O)[C@H]1O in the records?
0.982

Which value of normalized growth has been reported for CCCCCCCCCCCCCCCCCCOCC(O)CO (centres undefined) in the records?
1.01

Which value of normalized growth has been reported for NCC1OC(OC2C(CO)OC(OC3C(O)C(N)CC(N)C3OC3OC(CO)C(O)CC3N)C2O)C(N)C(O)C1OC1OC(CO)C(O)C(O)C1O (centres undefined) in the records?
0.977

More entries:
Which value of normalized growth has been reported for NC(N)=NC(N)=Nc1ccccc1 in the records?
0.995

Which value of normalized growth has been reported for Cc1cc(=O)n(-c2ccccc2)n1C in the records?
0.996

Which value of normalized growth has been reported for COP(=O)(OC)OC(Br)C(Cl)(Cl)Br (centres undefined) in the records?
0.997

Which value of normalized growth has been reported for COc1cc(NS(=O)(=O)c2ccc(N)cc2)ncn1 in the records?
0.977

Which value of normalized growth has been reported for C[C@]12CCC(=O)C=C1CCC1C2C(=O)C[C@@]2(C)C1CC[C@]2(O)C(=O)CO (some centres undefined) in the records?
1.01

Which value of normalized growth has been reported for COc1cc(-c2coc3cc(O[C@@H]4O[C@H](CO)[C@@H](O)[C@H](O)[C@H]4O)c(OC)c(O)c3c2=O)cc(O)c1OC in the records?
1.01

====

# PROCEDURE SUMMARY: chemical genetic growth profiling, strain panel (AID 1159580);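 note: tested at 20 µM; growth read once vehicle control cultures reached saturation at 30 °C; 1 = growth at the plate median or of vehicle wells; lower values mean less growth of the strain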
# EXPERIMENTAL PARAMETERS: S. cerevisiae deletion strains, growth OD, locus YJR043C, strain POL32, active compounds read low
The campaign covered roughly 5,500 compounds. About 2,000 (36%) were called active. Roughly 18% stayed inconclusive and do not appear here. The list shows a part of the results. *1 amine or outer side, *2 acyl side, *3 side chain or, on linkers, in order; H or OH if unused. Where a SMILES comes first, the peptide text is derived from it. Bridges are numbered along the chain shown (N, C = ends). Side-chain parts run from the residue outwards. [ ]: non-standard residue; d: D form. The star is where a group is joined. ξ: configuration not given here. ΔAla(E,3-NHCONH2) = NC(=O)N/C=C(/N)C(=O)O; X2 = NC1=NCCC(C(N[*:1])C(=O)[*:2])N1; X1 = CCC(C)C(N)C1=NC(C(=O)*)CS1; ξβ3hOrn = NCCCC(N)CC(=O)*; Orn = NCCC[CH](N)C(=O)O; Dap = NC[CH](N)C(=O)O
READOUT NAME: normalized growth
Number only, please.

Which value of normalized growth has been reported for NCCCC(N)CC(=O)NCC1NC(=O)C(CO)NC(=O)C(N)CNC(=O)C(C2CCN=C(N)N2)NC(=O)/C(=C\NC(N)=O)NC1=O (stereo not drawn) (H-[Dap]S[Dap](ξβ3hOrn)[ΔAla(E,3-NHCONH2)][X2]; lactam 1-C; configuration not given here) in the records?
1.01

More entries:
Which value of normalized growth has been reported for c1ccc([C@H]2CN3CCSC3=N2)cc1 in the records?
1.02

Which value of normalized growth has been reported for O=C(O)c1cc(=O)c2c(Cl)cc(Cl)cc2[nH]1 in the records?
1

Which value of normalized growth has been reported for CC(=O)CC1CCCCN1 (configuration not stated) in the records?
0.992

Which value of normalized growth has been reported for CCOC([O-])=Nc1c[n+](N2CCOCC2)no1 in the records?
0.989

Which value of normalized growth has been reported for CCC(C)C(N)C1=NC(C(=O)NC(CC(C)C)C(=O)NC(CCC(=O)O)C(=O)NC(C(=O)NCCCCC2NC(=O)C(CC(N)=O)NC(=O)C(CC(=O)O)NC(=O)C(Cc3cnc[nH]3)NC(=O)C(Cc3ccccc3)NC(=O)C(C(C)CC)NC(=O)C(CCCN)NC2=O)C(C)CC)CS1 (stereo not drawn) (cyclo(DNK([Ile-Glu-Leu-X1])[Orn]IFH); configuration not given here) in the records?
0.996

Reference source: PubChem BioAssay AID1159580
